system: NCI-H226; assay: NCI tumour cell line growth inhibition, 48 h
Calls of active or inactive are those of the source. No stated cut-off is given here; in the data, active = GI50 up to about 1.1 µM and inactive = higher.
propertyMeasured: GI50

>  <compound>
COc1ccccc1N1C(=O)/C(=C\c2cc(OC)c(OC)c(OC)c2)SC1c1ccccc1 (stereo not given)

>  <subjectOfTest>
NCI-H226

>  <GI50>
28.9 µM (inactive)

$$$$
>  <compound>
Cc1cc2[nH]c3c(C#N)c4c(c(=O)n3c2cc1C)CCCC4

>  <subjectOfTest>
NCI-H226

>  <GI50>
> 100 µM (inactive)

$$$$
>  <compound>
Cc1cc(N(C)C)c2ccccc2[n+]1CCCCCCCCCC[n+]1c(C)cc(N(C)C)c2ccccc21.[O-][Cl+3]([O-])([O-])[O-].[O-][Cl+3]([O-])([O-])[O-]

>  <subjectOfTest>
NCI-H226

>  <GI50>
3.33 µM (inactive)

$$$$
>  <compound>
C=C1C(=O)OC2C1C(OC(=O)/C(=C/C)COC(C)=O)CC1(CO1)C1C(OC(=O)/C(=C/C)CO)C=C(C)C21 (stereo not given)

>  <subjectOfTest>
NCI-H226

>  <GI50>
1.65 µM (inactive)

$$$$

Hey, quick one: what's GI50 for each of these?
1. COc1ccccc1C(=O)c1c(NCc2ccccc2)c(=O)c1=O
2. CCN1C2=NC(=O)N(C)C(=O)C2(Cl)C(C(SC)S(=O)(=O)c2ccc(C)cc2)c2ccccc21 (stereo not given)
3. N=C(N)N/N=C/c1c(-c2cc([N+](=O)[O-])c(Cl)cc2Cl)nc2n1CCS2

Given back:
["> 100 µM (inactive)", "32.4 µM (inactive)", "34.4 µM (inactive)"]

Hey, quick one: what's GI50 for each of these?
1. Cc1ccc([C@H]2CC(=O)C[C@H](c3ccc(C)cc3)C23C(=O)c2ccccc2C3=O)cc1
2. CC[C@@H](/C=C\CCC(=O)C[C@H](O)CCC=C(C)C)O[Si](C(C)C)(C(C)C)C(C)C
3. CC1(C(=O)Nc2ccc3cc4ccccc4cc3c2)CC2(C)CC(C)(C1)C(O)NC2=O (stereo not given)

Given back:
1. 34.5 µM (inactive)
2. > 100 µM (inactive)
3. 53.1 µM (inactive)

###

system: IGROV-1; test: NCI tumour cell line growth inhibition, 48 h
The source made the active and inactive calls. Rule as the data show it: active = GI50 up to about 1.1 µM and inactive = higher.
propertyMeasured: GI50

Here's what some known entries look like.
>  <compound>
Cc1ccc(S(=O)(=O)N/N=C2\CCCCCCCCCCC2CN(C)C)cc1 (stereo not given)

>  <GI50>
16 µM (inactive)

$$$$
>  <compound>
COC(=O)CC(C(C(=O)OC)C(=O)OC)N1C(=O)OCC1c1ccccc1 (stereo not given)

>  <GI50>
> 100 µM (inactive)

$$$$
>  <compound>
COc1ccccc1C(=O)c1c(NCc2ccccc2)c(=O)c1=O

>  <GI50>
9.55 µM (inactive)

$$$$
>  <compound>
CC(=O)OCC1OC(n2c(-c3ccccc3)c(C)c(C)c(C#N)c2=S)C(OC(C)=O)C(OC(C)=O)C1OC(C)=O (stereo not given)

>  <GI50>
> 100 µM (inactive)

$$$$
>  <compound>
O=C(N/C(=C\c1ccc(Cl)cc1)c1nc2ccccc2[nH]1)c1ccccc1

>  <GI50>
19.4 µM (inactive)

$$$$

Hey, quick one: what's GI50 for each of these?
1. S=c1nc(N/N=C/c2cccs2)c2cn[nH]c2[nH]1
2. COC(=O)[C@@H](Cc1ccccc1)NNC(=O)OC(C)(C)C
3. C=C/C=C(\NC(=O)C(Cl)(Cl)Cl)[Si](C)(C)C
4. CCCN(CCC)c1c([N+](=O)[O-])cc(C(=O)N(CCO)CCO)cc1[N+](=O)[O-]
5. COc1ccc(/C=C/C(=O)c2nc3ccccc3[nH]2)cc1
6. C=C(C)[C@]12CC(C)C34OC(/C=C\C=C\CCCCCCCCC)(O[C@@H]1[C@@H]3[C@@H]1O[C@]1(CO)[C@@H](O)[C@]1(O)C(=O)C(C)=C[C@@H]41)O2 (stereo not given in full)
7. CCOC(=O)c1ccc(/N=C/c2ccc(N(CCC#N)S(=O)(=O)c3ccccc3)cc2C)cc1

Given back:
20.2 µM (inactive)
> 100 µM (inactive)
> 100 µM (inactive)
> 100 µM (inactive)
6.07 µM (inactive)
14.8 µM (inactive)
> 100 µM (inactive)
